Reference source: patent US20150105252A1

Test system: barnyardgrass
Assay: Test B flood
Type: in vivo, Echinochloa crus-galli
Details: 250 g ai/ha, visual rating on 0 to 100 scale (0 no effect, 100 complete control), 13 to 15 days

{"columns": ["SMILES", "Plant response rating, Barnyardgrass"],
 "data": [
  ["CCCNC(=O)c1cc(Br)n(Cc2cccc(C(F)(F)F)c2)n1", 0],
  ["CCc1cc(C(=O)NOC(C)C)nn1Cc1ccnc(OC(F)F)c1", 40],
  ["CCCCNC(=O)c1cc(Br)n(Cc2cccc(C(F)(F)F)c2)n1", 0],
  ["CCc1cc(-c2ccc(C(F)(F)F)cc2)nn1Cc1ccnc(C(F)(F)F)c1", 30],
  ["Cc1cc(C(=O)NC2CC2)nn1Oc1ccnc(C(F)(F)F)c1", 0],
  ["CCc1cc(C(=O)NC2CC2)nn1Cc1nnc(C(F)(F)F)o1", 0],
  ["O=C(NCC(F)(F)F)c1cc(Br)n(Cc2cccc(C(F)(F)F)c2)n1", 0],
  ["CCCNC(=O)c1cc(CC)n(Oc2cccc(C(F)(F)F)c2)n1", 0],
  ["CCCc1cc(C(=O)Nc2ccc(F)cc2)nn1Oc1ccnc(C(F)(F)F)c1", 0]
]}

###

System: corn
Assay: Test C postemergence
Type: in vivo, Zea mays
Settings: postemergence, 250 g ai/ha; scale 0 to 100 (0 no effect, 100 complete control)
Rule: Plant response rating, Corn under 20 gives condition not met, otherwise condition met.

{"columns": ["COMPOUND", "CATEGORY LABEL"],
 "data": [
  ["CCc1cc(C(=O)NOC(C)C)nn1Cc1ccnc(OC(F)F)c1 [Compound 126]", "condition met"],
  ["CCCNC(=O)c1cc(CCF)n(Cc2ccnc(C(F)(F)F)c2)n1 [Compound 177]", "condition not met"],
  ["CCc1cc(C(=O)NC2CC2)nn1Cc1ccnc(Br)c1 [Compound 220]", "condition not met"],
  ["CCc1cc(-c2ccc(C(F)(F)F)cc2)nn1Cc1ccnc(C(F)(F)F)c1 [Compound 110]", "condition met"],
  ["CCONC(=O)c1cc(CC)n(Cc2cccc(OC(F)(F)F)c2)n1 [Compound 72]", "condition met"],
  ["CCNC(=O)c1cc(CC)n(Cc2cc(C(F)(F)F)nn2C)n1 [Compound 154]", "condition not met"],
  ["CCCNC(=O)c1cc(OCC)n(Cc2ccnc(OC(F)F)c2)n1 [Compound 136]", "condition met"]
]}

###

Test system: Italian ryegrass
Assay: Test A postemergence
Assay type: in vivo, Lolium multiflorum
Conditions: Postemergence, 500 g ai/ha; 0 to 100 scale (0 no effect, 100 complete control)
MEASURED METRIC: Italian Ryegrass plant response rating

{"columns": ["COMPOUND", "ASSAYED SYSTEM", "TEST VALUE"],
 "data": [
  ["CCc1cc(C(=O)NC2CC2)nn1Cc1cc(OC(F)F)nn1C [Compound 211]", "Italian ryegrass", 30],
  ["CCONC(=O)c1cc(CC)n(Cc2cc(OC(F)F)nn2C)n1 [Compound 207]", "Italian ryegrass", 50],
  ["CCc1cc(C(=O)NCC(F)(F)F)nn1Cc1cc(C(F)(F)F)no1 [Compound 123]", "Italian ryegrass", 30],
  ["CCc1cc(C(=O)NC2CC2)nn1Cc1cc(C(F)(F)F)nn1C(C)C [Compound 212]", "Italian ryegrass", 10],
  ["CCCc1cc(C(=O)NC2CC2)nn1Cc1ccnc(OC(F)F)c1 [Compound 205]", "Italian ryegrass", 100]
]}

###

Test system: galium
Assay: Test C postemergence
Assay type: in vivo, Galium aparine
Details: postemergence, 62 g ai/ha; scale 0 to 100

{"columns": ["SMILES", "ASSAYED SYSTEM", "Galium plant response rating"],
 "data": [
  ["CCCNC(=O)c1cc(CCF)n(Cc2ccnc(C(F)(F)F)c2)n1", "galium", 50],
  ["CCc1cc(C(=O)NC2CC2)nn1Cc1ccnc(C(F)(F)F)c1", "galium", 75],
  ["CCOc1cc(C(=O)NCC(F)(F)F)nn1Cc1ccnc(OC(F)F)c1", "galium", 65],
  ["Cc1cc(C(=O)NCC(F)(F)F)nn1Cc1ccnc(C(F)(F)F)c1", "galium", 60],
  ["CCCc1cc(C(=O)NC2CC2)nn1Cc1cc(C(F)(F)F)nn1C", "galium", 85],
  ["CCCNC(=O)c1cc(CC)n(Cc2nc(C(F)(F)F)nn2C)n1", "galium", 50],
  ["CCc1cc(-c2ccc(C(F)(F)F)cc2)nn1Cc1ccnc(C(F)(F)F)c1", "galium", 60],
  ["CCCNC(=O)c1cc(OCC)n(Cc2ccnc(C(F)(F)F)c2)n1", "galium", 80],
  ["CCCc1cc(C(=O)NC(C)C)nn1Cc1cc(C(F)(F)F)nn1C", "galium", 80],
  ["CCOc1cc(C(=O)NOC(C)C)nn1Cc1ccnc(C(F)(F)F)c1", "galium", 60],
  ["CCONC(=O)c1cc(CC)n(Cc2cccc(OC(F)(F)F)c2)n1", "galium", 70]
]}

###

Tested on: rice
Experiment: Test C flooded paddy test
Assay type: in vivo, Oryza sativa
Details: Flood, 125 g ai/ha; scale 0 to 100
Documented Plant response rating, Rice across a set of compounds
MEASURED METRIC: Plant response rating, Rice

{"columns": ["SMILES", "TEST VALUE"],
 "data": [
  ["CCCc1cc(C(=O)NCC(F)(F)F)nn1Cc1ccnc(OC(F)F)c1", 0],
  ["CCCNC(=O)c1cc(CC)n(Cc2cccc(C(F)(F)F)c2)n1", 25],
  ["CCOc1cc(C(=O)NCC(F)(F)F)nn1Cc1ccnc(OC(F)F)c1", 0],
  ["CCCCNC(=O)c1cc(CC)n(Cc2ccnc(C(F)(F)F)c2)n1", 20],
  ["CCc1cc(C(=O)NCC2CC2)nn1Cc1cccc(OC(F)(F)F)c1", 10],
  ["CCc1cc(C(=O)NC(C)C)nn1Cc1ccnc(OCC(F)(F)F)c1", 0]
]}

###

System: foxtail, giant
Assay: Test A preemergence
Format: in vivo, Setaria faberii
Details: Preemergence, 1000 g ai/ha; 0 to 100 scale, 0 no effect, 100 complete control
Documented Foxtail, Giant plant response rating across a set of compounds
MEASURED METRIC: Foxtail, Giant plant response rating

{"columns": ["SMILES", "MEASURED METRIC", "TEST VALUE"],
 "data": [
  ["CCCNC(=O)c1cc(CCC)n(Cc2cccc(OC(F)(F)F)c2)n1", "Foxtail, Giant plant response rating", 100],
  ["CCc1cc(C(=O)NC2CC2)nn1Cc1cccc(C(F)(F)F)c1", "Foxtail, Giant plant response rating", 100],
  ["CCCc1cc(C(=O)NCC(F)(F)F)nn1Cc1cccc(OC(F)(F)F)c1", "Foxtail, Giant plant response rating", 100],
  ["CCc1cc(C(=O)N(C)CC)nn1Cc1cccc(C(F)(F)F)c1", "Foxtail, Giant plant response rating", 30],
  ["CCc1cc(C(=O)N(C)OC)nn1Cc1cccc(C(F)(F)F)c1", "Foxtail, Giant plant response rating", 100],
  ["CCc1cc(C(=O)NCC(C)C)nn1Cc1cccc(OC(F)(F)F)c1", "Foxtail, Giant plant response rating", 100],
  ["CCNC(=O)c1cc(C2CC2)n(Cc2cccc(OC(F)(F)F)c2)n1", "Foxtail, Giant plant response rating", 0],
  ["CCc1cc(C(=O)NC(C)(C)C)nn1Cc1cccc(OC(F)(F)F)c1", "Foxtail, Giant plant response rating", 10],
  ["CCCNC(=O)c1cc(C2CC2)n(Cc2cccc(OC(F)(F)F)c2)n1", "Foxtail, Giant plant response rating", 0],
  ["CCc1cc(C(=O)NC(C)(C)C)nn1Cc1cccc(C(F)(F)F)c1", "Foxtail, Giant plant response rating", 30],
  ["O=C(NC1CC1)c1cc(C2CC2)n(Cc2cccc(OC(F)(F)F)c2)n1", "Foxtail, Giant plant response rating", 30],
  ["CCCNC(=O)c1cc(CC)n(Cc2cccc(OC(F)(F)F)c2)n1", "Foxtail, Giant plant response rating", 90]
]}

###

Tested on: corn
Experiment: Test A preemergence
Type: in vivo, Zea mays
Conditions: Preemergence, 1000 g ai/ha; 0 to 100 scale, 0 no effect, 100 complete control

{"columns": ["COMPOUND", "Corn plant response rating"],
 "data": [
  ["O=C(NCC(F)(F)F)c1cc(C2CC2)n(Cc2cccc(OC(F)(F)F)c2)n1 [Compound 36]", 0],
  ["CCCNC(=O)c1cc(CC)n(Cc2cccc(OC(F)(F)F)c2)n1 [Compound 27]", 30],
  ["CCc1cc(C(=O)N(C)OC)nn1Cc1cccc(C(F)(F)F)c1 [Compound 66]", 0],
  ["CCc1cc(C(=O)NCC(C)C)nn1Cc1cccc(OC(F)(F)F)c1 [Compound 60]", 0],
  ["CCCNC(=O)c1cc(CC)n(Cc2cccc(C(F)(F)F)c2)n1 [Compound 16]", 50],
  ["CCc1cc(C(=O)NC2CC2)nn1Cc1cccc(OC(F)(F)F)c1 [Compound 26]", 40]
]}
